- EXPERIMENTAL SYSTEM: biotinylated human DLL3 protein expressed as a human IgG1 fusion protein (human) (UniProt Q9NYJ7)
- Sequence (Q9NYJ7 other isoform, or with tags, fused parts or gaps): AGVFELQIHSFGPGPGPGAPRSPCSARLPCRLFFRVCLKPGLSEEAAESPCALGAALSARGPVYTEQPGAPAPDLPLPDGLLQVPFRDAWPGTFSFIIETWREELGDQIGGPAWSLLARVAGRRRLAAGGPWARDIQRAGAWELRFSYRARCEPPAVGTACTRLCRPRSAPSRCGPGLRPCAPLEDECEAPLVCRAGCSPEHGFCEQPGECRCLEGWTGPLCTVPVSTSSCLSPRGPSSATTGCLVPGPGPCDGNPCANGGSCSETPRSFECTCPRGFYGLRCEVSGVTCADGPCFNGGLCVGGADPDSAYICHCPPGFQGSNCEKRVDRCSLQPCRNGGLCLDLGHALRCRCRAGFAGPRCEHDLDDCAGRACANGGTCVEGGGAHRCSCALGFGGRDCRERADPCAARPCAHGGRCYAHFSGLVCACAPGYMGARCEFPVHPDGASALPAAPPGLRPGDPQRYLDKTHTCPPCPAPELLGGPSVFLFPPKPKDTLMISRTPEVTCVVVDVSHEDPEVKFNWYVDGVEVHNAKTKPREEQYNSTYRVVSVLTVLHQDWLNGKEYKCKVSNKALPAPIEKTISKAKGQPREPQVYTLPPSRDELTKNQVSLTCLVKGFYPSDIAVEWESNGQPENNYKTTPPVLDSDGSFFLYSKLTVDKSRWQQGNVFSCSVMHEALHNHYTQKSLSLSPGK
- PROTOCOL DESCRIPTION: Octet BLI; biotinylated huDLL3-IgG1 fusion on streptavidin tips; single 50 nM; conditioned medium
MEASURED PROPERTY: Kd (nM)
Dear colleague, please return just the value in nM, with no unit written.

BINDER	Kd (nM)
anti-DLL3 trispecific protein 1B09 (protein, part only; not given: anti-CD3 and anti-albumin domains, part only) chain, part: EVQLVESGGGLVQPGGSLTLSCVASGSTSSINAMAWYRRAPGKQRELVAGISSDGSKVYVDSVKGRFTISRDNAKNSVYLQMNSLRAEDTAVYYCYYFRTVSGSSMRYWGQGTLVTVSSGGGGSGGGSGGGGSGGGSHHHHHH	5.4
anti-DLL3 trispecific protein 1D04 (protein, part only; not given: CD3 fragment and albumin sdAb, part only) chain, part: EVQLVESGGGLVQPGGSLTLSCVASGSTSSKNAMGWYRRAPGKQRELVAGISSDGSKVYADSVKGRFTISRDNAKNSVYLQMNSLRAEDTAVYYCYYFRTVSGASMRYWGQGTLVTVSSGGGGSGGGSGGGGSGGGSHHHHHH	9.7
anti-DLL3 trispecific protein 4B07 (protein, part only; not given: anti-CD3 fragment and anti-albumin sdAb, part only) chain, part: EVQLVESGGGLVQPGGSLTLSCAASGSSVGFLSMAWYRQAPGKKRELVAGISADGSTVYIDSVKGRFTISRDNAKNSVYLQMNSLRAEDTAVYYCYAYRWTTRYTYWGQGTLVTVSSGGGGSGGGSGGGGSGGGSHHHHHH	4.3

Now let's try a different one.
Query :: Form field: reported Kd of anti-DLL3 trispecific protein 2F01 (protein, part only; not given: anti-CD3 and anti-albumin domains, part only) chain, part: EVQLVESGGGLVQPGGSLTLSCVASGSTSSINAMGWYRRAPGKQRELVAGISSDGSKVYSDSVKGRFTISRDNAKNSVYLQMNSLRAEDTAVYYCYYFRLVSGSSMRYWGQGTLVTVSSGGGGSGGGSGGGGSGGGSHHHHHH
Result :: 9.2
